# credit: patent US5071849A

LD50 at 336 h by entry:
# protocol.notes: in vivo
# test.parameters: mouse, po

{"molecule": "CCOC(=O)C1=C(C)N=C2SCCCN2C1c1c(F)cccc1Cl (centres unmarked)", "LD50 at 336 h": "170 mg/kg"}
{"molecule": "CC1=C(C(=O)Nc2ccccc2)C(c2ccccc2)N2CCCSC2=N1 (centres unmarked)", "LD50 at 336 h": "700 mg/kg"}
{"molecule": "CCOC(=O)C1=C(C)N=C2SCCCN2C1c1ccc(N(C)C)cc1 (centres unmarked)", "LD50 at 336 h": "700 mg/kg"}
{"molecule": "CCOC(=O)C1=C(c2ccccc2)N=C2SCCCN2C1c1ccc([N+](=O)[O-])cc1 (centres unmarked)", "LD50 at 336 h": "1000 mg/kg"}
{"molecule": "CCOC(=O)C1=C(C)N=C2SCCCN2C1c1ccccc1 (centres unmarked)", "LD50 at 336 h": "580 mg/kg"}

###

# protocol.notes: in vivo
# test.parameters: mouse, po
LD50 at 336 h by entry:
readout.name: LD50 at 336 h (mg/kg)

{"compound": "COC(=O)C1=C(C)N=C2SCCCN2C1C (centres unmarked)", "readout.qualifier": "=", "number": 400}
{"compound": "COC(=O)C1=C(C)N=C2SCC(C)CN2C1c1cccc([N+](=O)[O-])c1 (centres unmarked)", "readout.qualifier": ">", "number": 1000}
{"compound": "CCOC(=O)C1=C(c2ccccc2)N=C2SCCCN2C1c1c(F)cccc1Cl (centres unmarked)", "readout.qualifier": ">", "number": 1000}
{"compound": "COC(=O)C1=C(C)N=C2SCCCN2C1c1cc(OC)c(OC)c(OC)c1 (centres unmarked)", "readout.qualifier": ">", "number": 1000}
{"compound": "COC(=O)C1=C(C)N=C2SCCCN2C1c1cccc([N+](=O)[O-])c1 (centres unmarked)", "readout.qualifier": "=", "number": 370}

###

# protocol.notes: in vivo
# test.parameters: mouse, po
LD50 at 336 h by entry:

{"molecule": "COC(=O)C1=C(C)N=C2SCCCN2C1c1ccc(Cl)c(Cl)c1 (centres unmarked) [Example 16]", "LD50 at 336 h": "1000 mg/kg"}
{"molecule": "CC(=O)Nc1ccc(O)cc1 [Paracetamol, reference compound]", "LD50 at 336 h": "1180 mg/kg"}
{"molecule": "COC(=O)C1=C(C)N=C2SCCCN2C1c1ccccc1OC (centres unmarked) [Example 25]", "LD50 at 336 h": "100 to 500 mg/kg"}
{"molecule": "COC(=O)C1=C(C)N=C2SCC(C)CN2C1c1ccc(Cl)c([N+](=O)[O-])c1 (centres unmarked) [Example 9]", "LD50 at 336 h": "> 1000 mg/kg"}
{"molecule": "CCOC(=O)C1=C(C)N=C2SCCCN2C1c1ccc(Br)cc1 (centres unmarked) [Example 11]", "LD50 at 336 h": "> 1000 mg/kg"}

###

# protocol.notes: in vivo
# test.parameters: mouse, po
readout.name: LD50 at 336 h (mg/kg)

{"compound": "COC(=O)C1=C(C)N=C2SCCCN2C1c1ccc(OC)cc1 (centres unmarked)", "readout.name": "LD50 at 336 h", "quantity.unit": "mg/kg", "readout.qualifier": ">", "number": 1000}
{"compound": "CC1=C(C(=O)Nc2ccccc2)C(c2c(F)cccc2Cl)N2CCCSC2=N1 (centres unmarked)", "readout.name": "LD50 at 336 h", "quantity.unit": "mg/kg", "readout.qualifier": ">", "number": 1000}
{"compound": "COC(=O)C1=C(C)N=C2SCCCN2C1c1ccc(Cl)c([N+](=O)[O-])c1 (centres unmarked)", "readout.name": "LD50 at 336 h", "quantity.unit": "mg/kg", "readout.qualifier": "=", "number": 700}
{"compound": "CCOC(=O)C1=C(C)N=C2SCCCN2C1c1ccc(OC)cc1 (centres unmarked)", "readout.name": "LD50 at 336 h", "quantity.unit": "mg/kg", "readout.qualifier": "=", "number": 600}
{"compound": "CCOC(=O)C1=C(C)N=C2SCCCN2C1c1ccc(Cl)c(Cl)c1 (centres unmarked)", "readout.name": "LD50 at 336 h", "quantity.unit": "mg/kg", "readout.qualifier": "=", "number": 1000}
